The values you see were collected from PubChem BioAssay (NCI).

# Tested on: RPMI-8226 leukemia
# procedure.text: NCI tumour cell line growth inhibition, 48 h
*1 amine or outer side, *2 acyl side, *3 side chain or, on linkers, in order; H or OH if unused. Where a SMILES comes first, the peptide text is derived from it. [ ]: non-standard residue; d: D form. The star is where a group is joined. X12 = NCCCCC(N[*:1])C(=O)CN1CCCC1C(=O)[*:2]; Pentadecanoyl = CCCCCCCCCCCCCCC(=O)*
recorded.metric: TGI

compound: CCn1c(-c2nonc2N)nc2c(C#CC(C)(C)O)ncc(OCC3CCNCC3)c21
TGI: > 25 µM

compound: CCN(CC)c1ccc(/C=C2/NC(=O)NC2=O)cc1
TGI: > 100 µM

compound: COc1cc2ccc(C(=O)O)cc2cc1OC
TGI: > 100 µM

compound: O=c1[nH]c(=O)c2c([nH]1)[nH]c1ccccc12
TGI: > 100 µM

compound: Cc1cnc2[nH]c(-c3sccc3C)cc(=O)c2c1
TGI: > 100 µM

compound: CCN(CC)CCC1(C(=O)OC)SCCc2ccc(C)cc21 (stereo not drawn)
TGI: > 100 µM

compound: Cc1nc(C)c(C(=O)NNC(=O)c2ccccc2)cc1C(=O)NNC(=O)c1ccccc1
TGI: > 100 µM

compound: COc1ccc2c(c1)/C(=N/OC(C)=O)c1c-2c(Nc2ccc(/C(C)=N/OC(C)=O)cc2)nc2ccccc12
TGI: 79.7 µM

Record NS(=O)(=O)c1ccc(NS(=O)(=O)c2ccc(NC(=O)N(c3ccccc3)c3ccccc3)cc2)cc1 , field TGI: 94.9 µM

Notebook: CCCCCCCCCCCCCCC(=O)NC(CCCCN)C(=O)CN1CCCC1C(=O)NCC(=O)NC(Cc1ccccc1)C(=O)N1CCCC1C(=O)NC(CO)C(=O)NC(Cc1ccc(O)cc1)C(=O)NC(CCCCN)C(=O)NC(CC(C)C)C(=O)NC(CCCN=C(N)N)C(=O)N1CCCC1C(=O)NCC(N)=O (stereo not drawn) (Pentadecanoyl-[X12]GFPSYKLRPG-NH2; configuration not given here) , TGI read as 30.8 µM

Short answer for O=C(CN1CCN(c2cc3c(cc2F)c(=O)c(C(=O)O)cn3C2CC2)CC1)Nc1ccc(C(=O)/C=C/c2ccccc2)cc1 : TGI was 6.73 µM

# compound BrCC[N+]12CCCN1CCC2 ; its TGI = 8.38 µM

Recorded result, COC(=O)C1=C(C)NC(C)=C(C(=O)OC)C1c1ccccc1[N+](=O)[O-] , TGI: > 100 µM

The reported value for Fc1ccc(-c2ncn(C3CCNCC3)c2-c2ccnc(Oc3ccc(Oc4ccccc4)cc3)n2)cc1 in terms of TGI is 9.91 µM

Quick note, TGI for Cc1cc(N)c2cc(NC(=O)CCCCCCCCC(=O)Nc3ccc4nc(C)cc(N)c4c3)ccc2n1 landed at > 100 µM

Given item CCCCOc1nc2ccccc2cc1C1CNC(=O)c2ccccc2N1 (stereo not drawn) , the value recorded as its TGI is 16 µM

Sure, the documented TGI for COc1ccc2nc(NC(=O)C(=O)C(C#N)c3ccc(CC#N)cc3)sc2c1 (stereo not drawn) is > 100 µM

Lookup result for S=C1NC2=C(CCOc3c2ccc2ccccc32)C(c2ccc(Cl)cc2)N1 (stereo not drawn) ; measured TGI: > 100 µM
